experiment: in vitro; details: Chinese hamster, Cytotoxicity (IC50) CHO 96 h
Can you tell me IC50 for the items I'm about to list?
Give just the numeric value; µM need not be written.

# IC50 lookup, item COc1cc(OC)c2oc(COP(=O)(NCCCl)NCCCl)cc2c1 [SU025-04]
10.1

# IC50 lookup, item COc1cc(OC)c2oc(COP(=O)(NCCBr)NCCBr)cc2c1 [SU046-04]
16.2

###

Can you tell me IC50 for the items I'm about to list?
system: CYP1A1; assay: in vitro; conditions: Chinese hamster
Give just the numeric value; µM need not be written.

# IC50 lookup, item COc1cc(OC)c2oc(COP(=O)(NCCBr)NCCBr)cc2c1 [SU046-04]
20.3

# IC50 lookup, item COc1cc(OC)c2oc(COP(=O)(NCCCl)NCCCl)cc2c1 [SU025-04]
25.5
